- assay.overview: Clearance in dog at 3 mg/kg
- Assay type: ADME, organism-based, Canis lupus familiaris
- Design: dose 3 mg/kg
- test.conditions: in vivo
reported.endpoint: clearance (mL/min/kg)
Answers are plain numbers, in mL/min/kg.

So what's the measured clearance for this one? `Cc1c(NCCN2CCCC2)cc(C(=O)CCC(F)(F)F)cc1N1CCN(c2ncnc3[nH]nc(Br)c23)CC1`
26

----------
- assay.overview: Oral bioavailability in monkey at 3 mg/kg
- Type: ADME, organism-based, Macaca mulatta
- test.conditions: rhesus monkey, in vivo
reported.endpoint: bioavailability (%)
Numbers only, in %.

// query bioavailability value for entry Cc1c(NCCN2CCCC2)cc(C(=O)CCC(F)(F)F)cc1N1CCN(c2ncnc3[nH]nc(Br)c23)CC1 [XL-418]
77

----------
- target.under.test: Ribosomal protein S6 kinase beta-1 (Homo sapiens, UniProt P23443)
- Sequence (P23443 whole entry): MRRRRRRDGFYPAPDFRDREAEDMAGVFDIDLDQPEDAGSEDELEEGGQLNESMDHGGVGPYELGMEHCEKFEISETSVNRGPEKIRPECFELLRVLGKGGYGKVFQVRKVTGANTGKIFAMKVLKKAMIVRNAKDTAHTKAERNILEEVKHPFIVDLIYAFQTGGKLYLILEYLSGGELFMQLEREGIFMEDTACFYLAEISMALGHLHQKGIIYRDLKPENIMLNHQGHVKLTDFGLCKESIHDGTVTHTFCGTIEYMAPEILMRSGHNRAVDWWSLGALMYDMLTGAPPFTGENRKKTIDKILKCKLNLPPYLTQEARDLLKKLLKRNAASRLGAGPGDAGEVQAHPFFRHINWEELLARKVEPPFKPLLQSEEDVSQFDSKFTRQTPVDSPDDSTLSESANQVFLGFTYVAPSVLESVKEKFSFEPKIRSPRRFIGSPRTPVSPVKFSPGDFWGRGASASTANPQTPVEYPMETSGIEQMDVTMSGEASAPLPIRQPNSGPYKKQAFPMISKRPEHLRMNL
- assay.overview: Inhibition of p70S6K-mediated ribosomal protein S6 phosphorylation in human PC3 cells after 3 hrs by chemiluminescence assay
- Format: cell-based, PC-3
Give IC50 for every item shown.
Numbers only, in nM.

Take a look at these entries with their results.
Cc1noc(-c2cc(NCCN3CCCC3)c(C)c(N3CCN(c4ncnc5[nH]nc(Br)c45)CC3)c2)n1 ... 47
CCc1n[nH]c2ncnc(N3CCN(c4cc(Cl)cc(NCCN5CCCC5)c4C)CC3)c12 ... 832

// moving on: another record for IC50
Recorded IC50 of `Cc1c(NCCN2CCCC2)cc(COCC(F)(F)F)cc1N1CCN(c2ncnc3[nH]nc(Br)c23)CC1` , please.
66

----------
I'd appreciate it if you could supply Cmax values for the items below.
- assay.overview: Cmax in rat at 2.5 mg/kg, po
- Assay type: ADME, organism-based
- Design: dose 2.5 mg/kg, route oral
- test.conditions: in vivo
Answers are plain numbers, in nM.

Cc1c(NCCN2CCCC2)cc(C(=O)CCC(F)(F)F)cc1N1CCN(c2ncnc3[nH]nc(Br)c23)CC1 [XL-418] ... 40

Respectfully, I request Cmax for each entry included below.
1. Cc1noc(-c2cc(NCCN3CCCC3)c(C)c(N3CCN(c4ncnc5[nH]nc(Br)c45)CC3)c2)n1
2. Cc1c(NCCN2CCCC2)cc(COCC(F)(F)F)cc1N1CCN(c2ncnc3[nH]nc(Br)c23)CC1

1: 10; 2: 20

----------
- assay.overview: Cmax in rat at 5 mg/kg, iv
- Type: ADME, organism-based
- Design: dose 5 mg/kg, route intravenous
- test.conditions: in vivo
reported.endpoint: Cmax (nM)
One number for each entry, in nM.

Cc1c(NCCN2CCCC2)cc(OCC(C)C)cc1N1CCN(c2ncnc3[nH]nc(Br)c23)CC1 ... 1150

// lookup Cmax for `CCC(=O)c1cc(NCCN2CCCC2)c(C)c(N2CCN(c3ncnc4[nH]nc(Br)c34)CC2)c1`
1440

----------
- assay.overview: Half life in dog at 3 mg/kg, iv
- Assay type: ADME, organism-based, Canis lupus familiaris
- Parameters: dose 3 mg/kg, route intravenous
- test.conditions: in vivo
reported.endpoint: half-life (h)
One number for each entry, in h.

# query: half-life of entry `Cc1c(NCCN2CCCC2)cc(C(=O)CCC(F)(F)F)cc1N1CCN(c2ncnc3[nH]nc(Br)c23)CC1`
7.5

----------
- target.under.test: RAC-alpha serine/threonine-protein kinase (Homo sapiens)
- Sequence (P31749 whole entry): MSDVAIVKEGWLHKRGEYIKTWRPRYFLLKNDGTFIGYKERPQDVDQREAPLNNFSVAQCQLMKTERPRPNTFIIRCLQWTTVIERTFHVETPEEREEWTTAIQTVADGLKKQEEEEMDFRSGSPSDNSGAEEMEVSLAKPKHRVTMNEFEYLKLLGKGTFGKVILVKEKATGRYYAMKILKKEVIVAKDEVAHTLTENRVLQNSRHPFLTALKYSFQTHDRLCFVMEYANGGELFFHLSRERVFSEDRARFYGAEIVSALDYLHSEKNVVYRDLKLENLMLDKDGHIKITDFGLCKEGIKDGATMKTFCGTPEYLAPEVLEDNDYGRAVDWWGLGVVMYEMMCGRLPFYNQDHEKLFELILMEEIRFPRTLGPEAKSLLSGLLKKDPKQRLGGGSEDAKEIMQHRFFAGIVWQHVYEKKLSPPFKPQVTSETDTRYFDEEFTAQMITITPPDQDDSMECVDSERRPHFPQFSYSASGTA
- assay.overview: Inhibition of AKT1-mediated GSK3beta phosphorylation in human PC3 cells after 3 hrs by chemiluminescence assay
- Type: cell-based, PC-3
reported.endpoint: IC50 (nM)
One number for each entry, in nM.

Some molecules with known IC50 results, for comparison:
Cc1c(NCCN2CCCC2)cc(OCC(C)C)cc1N1CCN(c2ncnc3[nH]nc(Br)c23)CC1 ... 700
CCc1n[nH]c2ncnc(N3CCN(c4cc(Cl)cc(NCCN(C)C)c4C)CC3)c12 ... 9030
Cc1c(NCCN2CCCC2)cc(CCC(C)(C)C)cc1N1CCN(c2ncnc3[nH]nc(Br)c23)CC1 ... 1980

Provide IC50 for all items below, preserving their order.
1. Cc1noc(-c2cc(NCCN3CCCC3)c(C)c(N3CCN(c4ncnc5[nH]nc(Br)c45)CC3)c2)n1
2. CCc1n[nH]c2ncnc(N3CCN(c4cc(Cl)cc(NCCN5CCCC5)c4C)CC3)c12
3. CCC(=O)c1cc(NCCN2CCCC2)c(C)c(N2CCN(c3ncnc4[nH]nc(Br)c34)CC2)c1
4. Cc1c(NCCN2CCCC2)cc(COCC(F)(F)F)cc1N1CCN(c2ncnc3[nH]nc(Br)c23)CC1

1. 665
2. 3590
3. 976
4. 730

// for each molecule in input: emit IC50
1. COC(=O)c1cc(NCCN2CCCC2)c(C)c(N2CCN(c3ncnc4[nH]nc(Br)c34)CC2)c1
2. CCOc1cc(NCCN2CCCC2)c(C)c(N2CCN(c3ncnc4[nH]nc(Br)c34)CC2)c1
3. Cc1c(NCCN2CCCC2)cc(C(=O)Nc2ccccc2)cc1N1CCN(c2ncnc3[nH]nc(Br)c23)CC1
4. Cc1c(NCCN(C)C)cc(Cl)cc1N1CCN(c2ncnc3[nH]nc(Br)c23)CC1
5. Cc1c(NCCN2CCCC2)cc(C(=O)CCC(F)(F)F)cc1N1CCN(c2ncnc3[nH]nc(Br)c23)CC1 [XL-418]
6. Cc1c(NCCN2CCCC2)cc(Cl)cc1N1CCN(c2ncnc3[nH]nc(Br)c23)CC1

1840
9070
7810
4280
194
1270

----------
- assay.overview: Oral bioavailability in dog at 3 mg/kg
- Format: ADME, organism-based, Canis lupus familiaris
- test.conditions: in vivo
reported.endpoint: bioavailability

# lookup: bioavailability of Cc1c(NCCN2CCCC2)cc(C(=O)CCC(F)(F)F)cc1N1CCN(c2ncnc3[nH]nc(Br)c23)CC1 [XL-418]
58%

----------
- assay.overview: Half life in rat at 5 mg/kg, iv
- Assay type: ADME, organism-based
- Parameters: dose 5 mg/kg, route intravenous
- test.conditions: in vivo
reported.endpoint: half-life (h)
One number for each entry, in h.

CCC(=O)c1cc(NCCN2CCCC2)c(C)c(N2CCN(c3ncnc4[nH]nc(Br)c34)CC2)c1 ... 3.1

Bench note: what half-life did `Cc1c(NCCN2CCCC2)cc(OCC(C)C)cc1N1CCN(c2ncnc3[nH]nc(Br)c23)CC1` show?
2.5

----------
- assay.overview: Plasma concentration in mouse at 100 mg/kg after 1 hr
- Assay type: ADME, organism-based
- Set-up: dose 100 mg/kg
Field: concentration at 1 h. Provide a value for each of the compounds that follow.
Give bare numbers, in nM.

Cc1c(NCCN2CCCC2)cc(C(=O)CCC(F)(F)F)cc1N1CCN(c2ncnc3[nH]nc(Br)c23)CC1 ... 1600
CCC(=O)c1cc(NCCN2CCCC2)c(C)c(N2CCN(c3ncnc4[nH]nc(Br)c34)CC2)c1 ... 2000
Cc1c(NCCN2CCCC2)cc(COCC(F)(F)F)cc1N1CCN(c2ncnc3[nH]nc(Br)c23)CC1 ... 1200
Cc1c(NCCN2CCCC2)cc(OCC(C)C)cc1N1CCN(c2ncnc3[nH]nc(Br)c23)CC1 ... 1200

Now for a further compound.
Entry `Cc1noc(-c2cc(NCCN3CCCC3)c(C)c(N3CCN(c4ncnc5[nH]nc(Br)c45)CC3)c2)n1` has what concentration at 1 h?
300

----------
- assay.overview: Clearance in monkey at 3 mg/kg
- Type: ADME, organism-based, Macaca mulatta
- Design: dose 3 mg/kg
- test.conditions: rhesus monkey, in vivo
reported.endpoint: clearance (mL/min/kg)
Numbers only, in mL/min/kg.

// query clearance value for entry `Cc1c(NCCN2CCCC2)cc(C(=O)CCC(F)(F)F)cc1N1CCN(c2ncnc3[nH]nc(Br)c23)CC1`
20.5

----------
- target.under.test: Ribosomal protein S6 kinase beta-1 (Homo sapiens)
- assay.overview: Inhibition of p70S6K-mediated ribosomal protein S6 phosphorylation in human A549 cells after 3 hrs by chemiluminescence assay
- Assay type: cell-based
reported.endpoint: IC50 (nM)
Give bare numbers, in nM.

Answered examples (3):
Cc1c(NCCN2CCCC2)cc(Cl)cc1N1CCN(c2ncnc3[nH]nc(Br)c23)CC1 ... 94
Cc1c(NCCN2CCCC2)cc(CCC(C)(C)C)cc1N1CCN(c2ncnc3[nH]nc(Br)c23)CC1 ... 116
CCOc1cc(NCCN2CCCC2)c(C)c(N2CCN(c3ncnc4[nH]nc(Br)c34)CC2)c1 ... 197

Record IC50 per entry; entries follow.
1. COC(=O)c1cc(NCCN2CCCC2)c(C)c(N2CCN(c3ncnc4[nH]nc(Br)c34)CC2)c1
2. CCC(=O)c1cc(NCCN2CCCC2)c(C)c(N2CCN(c3ncnc4[nH]nc(Br)c34)CC2)c1

1. 44
2. 18

Could I get IC50 for every one of these entries?
1. Cc1c(NCCN2CCCC2)cc(COCC(F)(F)F)cc1N1CCN(c2ncnc3[nH]nc(Br)c23)CC1
2. Cc1c(NCCN(C)C)cc(Cl)cc1N1CCN(c2ncnc3[nH]nc(Br)c23)CC1
3. Cc1c(NCCN2CCCC2)cc(C(=O)Nc2ccccc2)cc1N1CCN(c2ncnc3[nH]nc(Br)c23)CC1
4. CCc1n[nH]c2ncnc(N3CCN(c4cc(Cl)cc(NCCN5CCCC5)c4C)CC3)c12

17
43
14
80
